Each entry below carries its reported Activity.
Assay: Antiplatelet activity in rat platelet rich plasma assessed as drug level causing inhibition of ADP-stimulated platelet aggregation pretreated 2 mins before ADP challenge
Assay type: functional
The answer is to be given in mg/mL; state only the numeric part.

Examples from the recorded data:
MOLECULE	ASSAY_RESULT
COc1cc2c(c(OC)c1OC)C(=O)c1c(cc(C)c(O[C@@H]3O[C@H](CO)[C@@H](O)[C@H](O)[C@H]3O)c1OC)C2=O	0.025
COc1c(O[C@@H]2O[C@H](CO)[C@@H](O)[C@H](O)[C@H]2O)c(C)cc2c1C(=O)c1c(O)cccc1C2=O	0.25

What the record says about COc1cc2c(c(OC)c1OC)C(=O)c1c(cc(C)c(O)c1OC)C2=O : Activity is 0.25
